- Format: in vivo, human
- setup_conditions: human, plasma, iv, 1 mg

smiles_string	unit_of_measure	AUC(0-t)
COc1ccsc1CNCC[C@@]1(c2ccccn2)CCOC2(CCCC2)C1	ng·h/mL	24.1

====

- Format: in vivo, human
- setup_conditions: human, plasma, iv, 1 mg
test_readout: Tmax

smiles_string	meas_value
COc1ccsc1CNCC[C@@]1(c2ccccn2)CCOC2(CCCC2)C1	15 min

====

- Format: in vivo, human
- setup_conditions: human, plasma, iv, 0.5 mg, Vz, arithmetic mean (SD), ESRD subjects, single 0.5 mg IV

smiles_string	Vd, L
COc1ccsc1CNCC[C@@]1(c2ccccn2)CCOC2(CCCC2)C1	219
